Origin of measurements: patent US10785975B2

system: Salmonella typhimurium; test: Example 2: effect of carbon chain length of individual organic acids on antimicrobial activity in water; format: cell-based; conditions: Product Conc. 0.025 (% acid solution in water); 4 hr
Item-by-item account of Salmonella at time Interval 4 hr cfu/g
quantity-measured: Salmonella at time Interval 4 hr cfu/g

{"molecule": "CCCCCCCCC(=O)O [Pelargonic acid/KOH, Pelargonic acid]", "target-under-test": "Salmonella typhimurium", "assay-result": "7 cfu/g"}
{"molecule": "CCCCCCCCCCCC(=O)O [Lauric acid/KOH, Lauric acid]", "target-under-test": "Salmonella typhimurium", "assay-result": "670 cfu/g"}
{"molecule": "CCCCC(=O)O [Valeric acid]", "target-under-test": "Salmonella typhimurium", "assay-result": "1233 cfu/g"}
{"molecule": "CCCCCCCC(=O)O [Caprylic acid/KOH, Caprylic acid]", "target-under-test": "Salmonella typhimurium", "assay-result": "1567 cfu/g"}
{"molecule": "CCC(=O)O [Propionic acid]", "target-under-test": "Salmonella typhimurium", "assay-result": "1167 cfu/g"}
{"molecule": "CCCCCCC(=O)O [Oenanthic acid]", "target-under-test": "Salmonella typhimurium", "assay-result": "1103 cfu/g"}
{"molecule": "CCCCCC(=O)O [Caproic acid]", "target-under-test": "Salmonella typhimurium", "assay-result": "1267 cfu/g"}
